# Tested on: U2OS
# Experimental details: Multiplex assay against U2OS
# Format: toxicity, cell-based
# Condition summary: human, 12 h, 1 µM, compound concentration 1 uM, replicate 2
Quantity name: Population Healthy Nuclei (%)
One number for each entry, in %.

Some solved entries appear below for comparison.
| Compound | Quantity name | Measurement |
| --- | --- | --- |
| c1ccc(-c2oc3ncnc(NC[C@@H]4CCCO4)c3c2-c2ccccc2)cc1 | Population Healthy Nuclei (%) | 90 |
| CC(C)c1cc(Nc2nc(N3CCC[C@H](N)C3)ncc2C(N)=O)cc(C(C)C)n1 | Population Healthy Nuclei (%) | 75 |
| CC(Cc1ccc(O)c(O)c1)C(C)Cc1ccc(O)c(O)c1 (stereo not given) [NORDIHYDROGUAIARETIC ACID] | Population Healthy Nuclei (%) | 93 |
| C[C@@H](Oc1cc(-n2cnc3ccc(CN4CCN(C)CC4)cc32)sc1C(N)=O)c1ccccc1C(F)(F)F | Population Healthy Nuclei (%) | 71 |

For every item below, please supply its Population Healthy Nuclei (%).
1. CC[C@@H]1C(=O)N(C)c2cnc(Nc3ccc(C(=O)NC4CCN(C)CC4)cc3OC)nc2N1C1CCCC1
2. CC(C)C[C@H](NC(=O)[C@H](Cc1ccccc1)NC(=O)CNC(=O)CNC(=O)[C@@H](N)Cc1ccc(O)cc1)C(=O)O
3. Cl.Cn1c2c(c3ccc(Cl)c(Cl)c31)C(C#N)C1(CCNCC1)NC2=O (stereo not given)
4. CC[C@H](Nc1ncnc2[nH]cnc12)c1nc2cccc(F)c2c(=O)n1-c1ccccc1
5. CCOc1ccn(-c2ccc(F)cc2)c(=O)c1C(=O)Nc1ccc(Oc2ccnc(N)c2Cl)c(F)c1
6. CN(c1cc(C(F)(F)F)nc(OCCC(=O)O)n1)c1cccc2c1CCC2

**A:**
79
82
94
84
86
80

* * *

Exercise: state measured Total Cell Count for each of the compounds provided.
# Test system: Fibroblast
# Experimental details: Multiplex assay against human fibroblast
# Type: toxicity, cell-based
# Condition summary: 24 h, 10 µM, compound concentration 10 uM, replicate 2
One number for each entry.

| Smiles input | Measurement |
| --- | --- |
| CC(C)[C@H](CO)Nc1nc(Nc2cccc(Cl)c2)c2ncn(C(C)C)c2n1 | 66 |
| NC(=O)c1ccc2nc(-c3ccc(C4(N)CCC4)cc3)c(-c3ccccc3)n2n1 | 80 |
| CC[C@H](Nc1ncnc2[nH]cnc12)c1nc2cccc(F)c2c(=O)n1-c1ccccc1 | 77 |

Go through the items and report each one's Total Cell Count.
1. CC(C)c1cc(Nc2nc(N3CCC[C@H](N)C3)ncc2C(N)=O)cc(C(C)C)n1
2. CN(c1cc(C(F)(F)F)nc(OCCC(=O)O)n1)c1cccc2c1CCC2
3. CC[C@@H]1C(=O)N(C)c2cnc(Nc3ccc(C(=O)NC4CCN(C)CC4)cc3OC)nc2N1C1CCCC1

**A:**
1: 57; 2: 79; 3: 76

* * *

For each record, write down the corresponding Population Normal (%).
# System: U2OS
# Experimental details: Multiplex assay against U2OS
# Assay type: toxicity, cell-based
# Condition summary: human, 12 h, 10 µM, compound concentration 10 uM, replicate 1
Numbers only, in %.

Previously resolved entries follow.
| Compound | Measurement |
| --- | --- |
| CC(/C=C1\SC(=S)N(CCCC(=O)Nc2ccc(C(=O)O)c(O)c2)C1=O)=C\c1ccccc1 | 90 |
| CCCCCNC(=N)N/N=C/c1c[nH]c2ccc(OC)cc12.O=C(O)/C=C\C(=O)O [TEGASEROD MALEATE] | 87 |
| Oc1cccc(-c2nc(N3CCOCC3)c3oc4ncccc4c3n2)c1 [PI-103] | 93 |
| N#CCNC(=O)c1ccc(-c2ccnc(Nc3ccc(N4CCOCC4)cc3)n2)cc1 [MOMELOTINIB] | 93 |
| Cc1ccc(NC(=O)Nc2cc(C(F)(F)F)ccc2F)cc1Nc1ccc2c(c1)NC(=O)/C2=C\c1ccc[nH]1 | 97 |

// each listed compound needs a value for Population Normal (%)
1. CCCc1cc(C)[nH]c(=O)c1CNC(=O)c1cc(-c2ccc(N3CCN(C(C)C)CC3)nc2)cc2c1cnn2C(C)C
2. CC(Cc1ccc(O)c(O)c1)C(C)Cc1ccc(O)c(O)c1 (stereo unspecified) [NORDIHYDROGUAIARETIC ACID]
3. Cc1c(Nc2ccc(S(=O)(=O)N3CCN(C)CC3)cc2F)nc2ccc(Nc3cnn(C4CC4)c3)cn2c1=O
4. CCCCN(CC)c1nc(C)nc2c1c(C)cn2-c1c(C)cc(C)cc1C.Cl

**A:**
1: 91; 2: 85; 3: 96; 4: 92
